Cited source for all entries: PubChem BioAssay AID248

- Tested on: L1210 leukemia ip in BDF1 mice, survival T/C
- METHOD: NCI In Vivo Anticancer Drug Screen. Data for tumor model L1210 Leukemia (intraperitoneal) in B6D2F1 (BDF1) mice
- CONDITIONS: endpoint: mean survival time; dose: 100.0 mg/kg/injection; schedule: Q04DX002 (ip); vehicle: Klucel (hydroxypropylcellulose) (HPC); higher = longer survival
Inconclusive results and toxic doses are left out.
List of T/C values.

COMPOUND: O=C1c2ccccc2C(=O)N1CC1CO1 (stereo not given)
T/C: 93 % of control
--
COMPOUND: COC(=O)C(=O)CC(=O)c1cccc(C)c1
T/C: 100 % of control
--
COMPOUND: CC(=O)C(=O)C1=C2CCCN2CCc2cc3c(cc21)OCO3
T/C: 111 % of control
--
COMPOUND: O=C(Nc1ccccc1-c1ccccc1)c1ccc(Cl)cc1Cl
T/C: 104 % of control
--
COMPOUND: O=C(O)c1ccc(=O)[nH]n1
T/C: 115 % of control
--
COMPOUND: CC(=O)Nc1ccc(C(=O)O)cc1[N+](=O)[O-]
T/C: 95 % of control
--
COMPOUND: O=S1(=O)C2CCCCCC2(N2CCOCC2)C1c1ccccc1 (stereo not given)
T/C: 101 % of control
--
COMPOUND: Nc1nc(N)nc(C(c2ccccc2)c2ccccc2)n1
T/C: 103 % of control
--
COMPOUND: Cn1cnc2cc(N=Cc3ccc(N(CCCl)CCCl)cc3F)ccc21
T/C: 104 % of control
--
COMPOUND: O=C(CCl)Nc1ccccc1
T/C: 89 % of control
--
COMPOUND: CN(C)CCCN1c2cc(Cl)ccc2Sc2ccc(Cl)cc21
T/C: 122 % of control
--
COMPOUND: Cc1cc(C)c(NC(=O)C2CCCCC2C(=O)O)c(C)c1 (stereo not given)
T/C: 99 % of control
--
COMPOUND: O=C(/C=C/c1cccc([N+](=O)[O-])c1)c1ccccc1[N+](=O)[O-]
T/C: 103 % of control
--
COMPOUND: C=CCn1c(SCc2ccccc2)nccc1=O
T/C: 111 % of control
--
COMPOUND: O=C(O)CCOc1ccccc1Cl
T/C: 98 % of control
